# assay.summary: Cell viability assay (MTT) of alloxan-treated cells
# Format: cell-based, human
# test.conditions: human, SW1088 astrocytoma cells, 1 mM alloxan, read-out: cells remaining viable (MTT)
# Protocol: FIG. 10 is a graph showing alloxan inhibits protein O-glycosylation in SW1088 human astrocytoma cells. Cells were grown in triplicate independent cultures in the presence of 0, 100, 500 μM and 1 mM concentrations of alloxan. Aliquots of whole cell lysates from each culture were applied to a nitrocellulose membrane using a vacuum slot blot device. […] Immunocomplexes were detected and quantified. […]
metric: viability at 96 h, 1 mM (%)
Provide only the numeric value, understood in %.

## Input Using known records, supply viability at 96 h, 1 mM for O=C1NC(=O)C(=O)C(=O)N1 [alloxan]
## Output 87
